These measurements were taken from patent US7691889B2.

- System: M. tuberculosis clinical isolates, sensitive
- Assay Protocol: microbe, parasite or virus in culture
- Format: cell-based, Mycobacterium tuberculosis
- Measurement Conditions: Table I; agar dilution
Metric Name: MIC against Clinical isolates Sensitive

Illustrative cases are given below, each with its answer.
{"Compound String": "O=C(C=CC(=O)c1ccccc1)NC[C@H]1CN(c2ccc(N3CCOCC3)c(F)c2)C(=O)O1", "MIC against Clinical isolates Sensitive": ">16 µg/mL"}
{"Compound String": "CSc1ccc(C(=O)CCC(=O)NC[C@H]2CN(c3ccc(N4CCCC4)c(F)c3)C(=O)O2)cc1", "MIC against Clinical isolates Sensitive": ">16 µg/mL"}

Now turn to the next molecule.
Task: # return MIC against Clinical isolates Sensitive for `O=C(CCC(=O)c1cccs1)NC[C@H]1CN(c2ccc(N3CCOCC3)c(F)c2)C(=O)O1` , test system: M. tuberculosis clinical isolates, sensitive
Result: 1 to 2 µg/mL
